The reported numbers originate from patent US20240391954A1.

- study.system: human MC3R (human, UniProt P41968 1-323)
- Sequence (P41968 whole entry): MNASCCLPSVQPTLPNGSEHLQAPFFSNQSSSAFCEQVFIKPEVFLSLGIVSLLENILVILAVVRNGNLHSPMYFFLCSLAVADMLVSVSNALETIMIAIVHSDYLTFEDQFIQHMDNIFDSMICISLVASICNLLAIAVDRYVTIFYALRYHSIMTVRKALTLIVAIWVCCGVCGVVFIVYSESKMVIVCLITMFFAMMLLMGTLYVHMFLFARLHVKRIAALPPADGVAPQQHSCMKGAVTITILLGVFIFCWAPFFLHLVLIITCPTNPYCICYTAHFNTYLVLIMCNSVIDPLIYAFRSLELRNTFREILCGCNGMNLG
- procedure.text: cell-based or functional assay
Positions of bridges follow the written chain, without caps; N, C: chain ends. Non-standard residues stand in square brackets, D forms with d. d2Nal = N[C@H](Cc1ccc2ccccc2c1)C(=O)O; d(αMeF) = C[C@@](N)(Cc1ccccc1)C(=O)O; 4Pal = N[C@@H](Cc1ccncc1)C(=O)O; Cit = NC(=O)NCCC[C@H](N)C(=O)O; Aib = CC(C)(N)C(=O)O
assay.readout: cAMP EC50 (nM)
Respond numerically; units are nM and should not be typed.

Worked cases, cAMP EC50 given:
{CH2CO}-[Aib]R[dF]RWC-NH2 (thioether N-6; SMILES CC1(C)NC(=O)CSC[C@@H](C(N)=O)NC(=O)[C@H](Cc2c[nH]c3ccccc23)NC(=O)[C@H](CCCNC(=N)N)NC(=O)[C@@H](Cc2ccccc2)NC(=O)[C@H](CCCNC(=N)N)NC1=O) [CTX-1648] = 72
Ac-RC[dA]R[dF]R[d2Nal]C-NH2 (disulfide 2-8) [CTX-1264] = 3.7
{CH2CO}-[Aib][Cit][dF]RWC-NH2 (thioether N-6; SMILES CC1(C)NC(=O)CSC[C@@H](C(N)=O)NC(=O)[C@H](Cc2c[nH]c3ccccc23)NC(=O)[C@H](CCCNC(=N)N)NC(=O)[C@@H](Cc2ccccc2)NC(=O)[C@H](CCCNC(N)=O)NC1=O) [CTX-1649] = 479
Ac-RCAR[dF]R[dW]C-NH2 (disulfide 2-8) [CTX-1268] = 211
{CH2CO}-[Aib]H[dF]RWC-NH2 (thioether N-6; SMILES CC1(C)NC(=O)CSC[C@@H](C(N)=O)NC(=O)[C@H](Cc2c[nH]c3ccccc23)NC(=O)[C@H](CCCNC(=N)N)NC(=O)[C@@H](Cc2ccccc2)NC(=O)[C@H](Cc2c[nH]cn2)NC1=O) [CTX-1647] = 21

Prompt: Indicate the recorded cAMP EC50 value for this binder: Ac-RCA[Cit][dF]R[dW]C-NH2 (disulfide 2-8) [CTX-1288]
Response: 1250

Prompt: Indicate the recorded cAMP EC50 value for this binder: Ac-C[Aib][Cit][dF]RFC-NH2 (disulfide 1-7; SMILES CC(=O)N[C@H]1CSSC[C@@H](C(N)=O)NC(=O)[C@H](Cc2ccccc2)NC(=O)[C@H](CCCNC(=N)N)NC(=O)[C@@H](Cc2ccccc2)NC(=O)[C@H](CCCNC(N)=O)NC(=O)C(C)(C)NC1=O) [CTX-1636]
Response: 7460

Prompt: Indicate the recorded cAMP EC50 value for this binder: Ac-RC[dA]R[dF][Cit][dW]C-NH2 (disulfide 2-8) [CTX-1281]
Response: 28

Prompt: Indicate the recorded cAMP EC50 value for this binder: Ac-RC[Aib][4Pal][dF]RFC-NH2 (disulfide 2-8; SMILES CC(=O)N[C@@H](CCCNC(=N)N)C(=O)N[C@H]1CSSC[C@@H](C(N)=O)NC(=O)[C@H](Cc2ccccc2)NC(=O)[C@H](CCCNC(=N)N)NC(=O)[C@@H](Cc2ccccc2)NC(=O)[C@H](Cc2ccncc2)NC(=O)C(C)(C)NC1=O) [CTX-1606]
Response: 82

Prompt: Indicate the recorded cAMP EC50 value for this binder: Ac-RC[dA]R[d(αMeF)]RWC-NH2 (disulfide 2-8; SMILES CC(=O)N[C@@H](CCCNC(=N)N)C(=O)N[C@H]1CSSC[C@@H](C(N)=O)NC(=O)[C@H](Cc2c[nH]c3ccccc23)NC(=O)[C@H](CCCNC(=N)N)NC(=O)[C@@](C)(Cc2ccccc2)NC(=O)[C@H](CCCNC(=N)N)NC(=O)[C@@H](C)NC1=O) [CTX-1278]
Response: 418
